- Test protocol: Solubility test according to surfactant
- Format: physicochemical
- Condition label: organic solvent or mixture, thermodynamic from solid; in Polysorbate 60; read-out: Dutasteride Solubility
Readout name: solubility at 24 h (µg/mL)

Compound: C[C@]12C=CC(=O)N[C@@H]1CC[C@@H]1[C@@H]2CC[C@]2(C)[C@@H](C(=O)Nc3cc(C(F)(F)F)ccc3C(F)(F)F)CC[C@@H]12 [Dutasteride]
Val: 1770

====

- Test protocol: Solubility test according to surfactant
- Format: physicochemical
- Condition label: organic solvent or mixture, thermodynamic from solid; in PEG 8 caprylic/capric glyceride; read-out: Dutasteride Solubility

Compound: C[C@]12C=CC(=O)N[C@@H]1CC[C@@H]1[C@@H]2CC[C@]2(C)[C@@H](C(=O)Nc3cc(C(F)(F)F)ccc3C(F)(F)F)CC[C@@H]12 [Dutasteride]
solubility at 24 h (µg/mL): 3860

src = patent US20190224195A1
